Assay: Half life in Sprague-Dawley rat at 5 mg/kg, iv measured up to 24 hrs by LC-MS/MS analysis
Format: ADME, organism-based
Conditions: in vivo
test-readout: half-life (min)
Reply numerically in min, unit not repeated.

Look over these answered cases.
CN(C)c1ccc2c(Oc3ccc(NC(=O)NCc4ccc(C(F)(F)F)nc4)cc3)ncnc2c1 : 174
COc1ccc(NC(=O)Nc2ccc(Oc3ncnc4cc(N(C)C)ccc34)cc2)cc1 : 96
CN(C)c1ccc2c(Oc3ccc(NC(=O)NCc4ccc(C(F)(F)F)nc4)cc3)ncnc2c1.CS(=O)(=O)O : 144
COc1ccc(CNC(=O)Nc2ccc(Oc3ncnc4cc(N(C)C)ccc34)cc2)cn1 : 72
CN(C)c1ccc2c(Oc3ccc(NC(=O)NCc4ccc(F)cc4)cc3)ncnc2c1 : 198
COc1ccc(CNC(=O)Nc2ccc(Oc3ncnc4cc(N(C)C)ccc34)cc2)cc1 : 1240

Continue with the next molecule.
Ask: Entry under review: Cc1ccc(CNC(=O)Nc2ccc(Oc3ncnc4cc(N(C)C)ccc34)cc2)cn1 . Reported half-life?
Result: 630

====

Biological target: Aurora kinase B (Homo sapiens)
Test: Inhibition of wild-type human partial length AURKB (D25 to A303 residues) expressed in mammalian expression system by Kinomescan method
test-readout: pIC50
pIC50 (log units): -log10 of the concentration in mol/L.

Ask: Entry under review: CN(C)c1ccc2c(Oc3ccc(NC(=O)NCc4ccc(C(F)(F)F)nc4)cc3)ncnc2c1 . Reported pIC50?
Result: 6.65

====

Target: Platelet-derived growth factor receptor alpha (Homo sapiens)
Sequence (P16234 whole entry): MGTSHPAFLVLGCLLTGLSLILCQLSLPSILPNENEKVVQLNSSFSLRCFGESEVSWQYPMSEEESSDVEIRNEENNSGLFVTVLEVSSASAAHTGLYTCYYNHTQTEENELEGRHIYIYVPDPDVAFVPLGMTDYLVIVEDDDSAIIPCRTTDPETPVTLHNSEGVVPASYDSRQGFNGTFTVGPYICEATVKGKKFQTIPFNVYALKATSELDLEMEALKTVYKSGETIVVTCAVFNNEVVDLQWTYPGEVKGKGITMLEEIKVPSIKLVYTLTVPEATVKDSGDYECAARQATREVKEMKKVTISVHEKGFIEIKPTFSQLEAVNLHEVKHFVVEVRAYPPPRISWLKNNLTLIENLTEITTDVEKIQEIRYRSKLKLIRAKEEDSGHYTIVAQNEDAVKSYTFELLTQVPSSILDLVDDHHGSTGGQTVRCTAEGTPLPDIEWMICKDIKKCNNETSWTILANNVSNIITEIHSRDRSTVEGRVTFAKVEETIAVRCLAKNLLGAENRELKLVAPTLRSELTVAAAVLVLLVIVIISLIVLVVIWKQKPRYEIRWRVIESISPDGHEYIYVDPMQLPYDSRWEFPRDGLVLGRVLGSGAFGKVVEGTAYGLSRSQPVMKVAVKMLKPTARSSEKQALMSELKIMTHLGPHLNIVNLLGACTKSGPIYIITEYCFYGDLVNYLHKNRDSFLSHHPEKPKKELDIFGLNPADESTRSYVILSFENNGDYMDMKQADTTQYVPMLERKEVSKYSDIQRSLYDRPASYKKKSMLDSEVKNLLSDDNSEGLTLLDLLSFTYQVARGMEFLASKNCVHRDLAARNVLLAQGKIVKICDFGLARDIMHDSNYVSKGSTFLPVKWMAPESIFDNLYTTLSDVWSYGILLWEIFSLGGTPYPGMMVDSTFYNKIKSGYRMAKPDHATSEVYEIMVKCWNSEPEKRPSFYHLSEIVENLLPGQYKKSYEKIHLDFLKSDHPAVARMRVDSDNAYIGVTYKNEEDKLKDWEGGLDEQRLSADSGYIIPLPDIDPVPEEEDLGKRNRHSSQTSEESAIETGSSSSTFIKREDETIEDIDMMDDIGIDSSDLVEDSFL
test-readout: pIC50
pIC50 (log units): -log10 of the concentration in mol/L.

Ask: Entry under review: CN(C)c1ccc2c(Oc3ccc(NC(=O)NCc4ccc(C(F)(F)F)nc4)cc3)ncnc2c1 . Reported pIC50?
Result: 7.28

====

Test: Volume of distribution at steady state in Sprague-Dawley rat at 5 mg/kg, iv measured up to 24 hrs by LC-MS/MS analysis
Type: ADME, organism-based
Conditions: in vivo, read-out: Vdss
test-readout: log10(Vd) (log10 of the value in L/kg)
Please keep in mind that the values are log10 of Vd expressed in L/kg.

Cc1ccc(CNC(=O)Nc2ccc(Oc3ncnc4cc(N(C)C)ccc34)cc2)cn1 : 0.18
CN(C)c1ccc2c(Oc3ccc(NC(=O)NCc4ccc(C(F)(F)F)nc4)cc3)ncnc2c1.CS(=O)(=O)O : 0.00
COc1ccc(CNC(=O)Nc2ccc(Oc3ncnc4cc(N(C)C)ccc34)cc2)cc1 : 0.95
COc1ccc(NC(=O)Nc2ccc(Oc3ncnc4cc(N(C)C)ccc34)cc2)cc1 : -0.15

Ask: Entry under review: COc1ccc(CNC(=O)Nc2ccc(Oc3ncnc4cc(N(C)C)ccc34)cc2)cn1 . Reported log10(Vd)?
Result: 0.15

Ask: Entry under review: CN(C)c1ccc2c(Oc3ccc(NC(=O)NCc4ccc(C(F)(F)F)nc4)cc3)ncnc2c1 . Reported log10(Vd)?
Result: -0.22

Ask: Entry under review: CN(C)c1ccc2c(Oc3ccc(NC(=O)NCc4ccc(F)cc4)cc3)ncnc2c1 . Reported log10(Vd)?
Result: 0.15

====

compounds and their reported IC50
Molecular target: Macrophage colony-stimulating factor 1 receptor (Homo sapiens)
Sequence (P07333 whole entry, the tested form may be a part): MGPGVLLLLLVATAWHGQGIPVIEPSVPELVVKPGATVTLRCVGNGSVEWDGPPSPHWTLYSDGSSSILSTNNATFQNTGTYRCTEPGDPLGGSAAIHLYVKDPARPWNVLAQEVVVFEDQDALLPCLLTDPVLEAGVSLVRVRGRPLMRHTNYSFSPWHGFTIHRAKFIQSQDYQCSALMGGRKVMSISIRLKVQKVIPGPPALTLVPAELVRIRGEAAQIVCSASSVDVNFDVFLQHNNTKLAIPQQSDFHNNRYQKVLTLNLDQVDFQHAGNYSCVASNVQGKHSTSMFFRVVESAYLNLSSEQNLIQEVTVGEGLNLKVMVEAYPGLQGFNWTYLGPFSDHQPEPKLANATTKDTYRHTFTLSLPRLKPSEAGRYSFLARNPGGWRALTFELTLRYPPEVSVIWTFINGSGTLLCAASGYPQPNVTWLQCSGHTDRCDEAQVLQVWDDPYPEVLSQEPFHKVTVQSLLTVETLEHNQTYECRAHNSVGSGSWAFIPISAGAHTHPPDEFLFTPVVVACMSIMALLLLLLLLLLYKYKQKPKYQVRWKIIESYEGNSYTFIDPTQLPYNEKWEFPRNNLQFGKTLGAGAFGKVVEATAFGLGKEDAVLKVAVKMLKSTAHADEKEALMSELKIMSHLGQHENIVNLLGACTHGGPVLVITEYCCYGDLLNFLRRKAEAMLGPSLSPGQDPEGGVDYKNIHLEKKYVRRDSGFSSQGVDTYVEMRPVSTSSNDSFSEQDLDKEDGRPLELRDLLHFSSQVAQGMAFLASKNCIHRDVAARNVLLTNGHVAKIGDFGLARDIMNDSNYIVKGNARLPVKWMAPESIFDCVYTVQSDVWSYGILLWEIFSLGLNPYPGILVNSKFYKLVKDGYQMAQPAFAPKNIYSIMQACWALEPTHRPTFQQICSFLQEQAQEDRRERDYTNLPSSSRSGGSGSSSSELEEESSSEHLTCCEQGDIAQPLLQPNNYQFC
Assay: Inhibition of human recombinant GST-CSF1R (residues L534 to C972) expressed in Sf9 insect cells using poly(Glu,Tyr) as substrate incubated for 20 mins by ATP Kinase Glo assay
Reply numerically in nM, unit not repeated.

Look over these answered cases.
CC(NC(=O)Nc1ccc(Oc2ncnc3cc(N(C)C)ccc23)cc1)c1nccs1 (centres undefined) : 1.41
CN(C)c1ccc2c(Oc3ccc(NC(=O)NCc4ccc(C(F)(F)F)nc4)cc3)ncnc2c1 : 14.4
CN(C)c1ccc2c(Oc3ccc(NC(=O)Nc4cccc(Cl)c4)cc3)ncnc2c1 : 10.5
CN(C)c1ccc2c(Oc3ccc(NC(=O)NCc4c(F)c(F)c(F)c(F)c4F)cc3)ncnc2c1 : 18.6
COc1ccc(NC(=O)Nc2ccc(Oc3ncnc4cc(N(C)C)ccc34)cc2)cc1Cl : 11.1
CN(C)c1ccc2c(Oc3ccc(NC(=O)NCc4ccc(C(F)(F)F)cc4)cc3)ncnc2c1 : 91
CN(C)c1ccc2c(Oc3ccc(NC(=O)NCc4ccn(C)n4)cc3)ncnc2c1 : 204
COc1ccc(CNC(=O)Nc2ccc(Oc3ncnc4cc(N(C)C)ccc34)cc2)cn1 : 12.7

Continue with the next compound.
Ask: Entry under review: COc1ccc(Cl)cc1NC(=O)Nc1ccc(Oc2ncnc3cc(N(C)C)ccc23)cc1 . Reported IC50?
Result: 36

====

Molecular target: Aurora kinase A (Homo sapiens) (UniProt O14965)
Experiment: Inhibition of recombinant GST-AURKA (residues Ser123 to Ser401) (unknown origin) expressed in Sf9 insect cells using tetra(-LRRASLG) peptide as substrate at 1 uM incubated for 90 mins by ATP Kinase Glo assay
compounds and their reported inhibition

Ask: Entry under review: COc1ccc(Cl)cc1NC(=O)Nc1ccc(Oc2ncnc3cc(N(C)C)ccc23)cc1 . Reported inhibition?
Result: 70%

====

Test: Dose normalized AUC (0 to inf) in Sprague-Dawley rat at 5 mg/kg, iv measured up to 24 hrs by LC-MS/MS analysis
Format: ADME, organism-based
Details: in vivo
test-readout: AUCt/dose (ng.hr/mL per mg/kg)
Reply numerically in ng.hr/mL per mg/kg, unit not repeated.

COc1ccc(CNC(=O)Nc2ccc(Oc3ncnc4cc(N(C)C)ccc34)cc2)cc1 : 1252
CN(C)c1ccc2c(Oc3ccc(NC(=O)NCc4ccc(F)cc4)cc3)ncnc2c1 : 1225
Cc1ccc(CNC(=O)Nc2ccc(Oc3ncnc4cc(N(C)C)ccc34)cc2)cn1 : 1578
COc1ccc(CNC(=O)Nc2ccc(Oc3ncnc4cc(N(C)C)ccc34)cc2)cn1 : 767

Continue with the next molecule.
Ask: Entry under review: COc1ccc(NC(=O)Nc2ccc(Oc3ncnc4cc(N(C)C)ccc34)cc2)cc1 . Reported AUCt/dose?
Result: 2842

====

Tested on: NFS-60
Assay: Antiproliferative activity against mouse NFS-60 cells transfected with human ETV6-CSF1R assessed as reduction in cell viability measured after 72 hrs by MTS method
Assay type: functional, cell-based
Settings: NFS-60, 72 h
test-readout: EC50 (nM)
Reply numerically in nM, unit not repeated.

Look over these answered cases.
COc1ccc(CNC(=O)Nc2ccc(Oc3ncnc4cc(N(C)C)ccc34)cc2)cn1 : 67
CN(C)c1ccc2c(Oc3ccc(NC(=O)Nc4ccccc4)cc3)ncnc2c1 : 92

Ask: Entry under review: CN(C)c1ccc2c(Oc3ccc(NC(=O)NCc4cccnc4)cc3)ncnc2c1 . Reported EC50?
Result: 152

====

Target: Aurora kinase B (Homo sapiens, UniProt Q96GD4)
Sequence (Q96GD4 whole entry, the tested form may be a part): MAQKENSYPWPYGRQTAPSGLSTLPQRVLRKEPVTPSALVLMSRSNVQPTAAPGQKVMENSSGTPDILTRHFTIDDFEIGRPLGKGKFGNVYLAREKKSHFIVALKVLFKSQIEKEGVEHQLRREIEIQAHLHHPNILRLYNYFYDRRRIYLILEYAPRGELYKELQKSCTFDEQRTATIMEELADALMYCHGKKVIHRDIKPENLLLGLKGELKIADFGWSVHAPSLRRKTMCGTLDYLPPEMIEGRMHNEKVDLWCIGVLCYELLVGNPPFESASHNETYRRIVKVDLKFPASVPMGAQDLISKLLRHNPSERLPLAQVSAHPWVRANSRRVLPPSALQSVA
Assay: Inhibition of human recombinant full length GST-AURKB using tetra(-LRRASLG) peptide as substrate at 0.1 uM incubated for 20 mins by ATP Kinase Glo assay
Assay type: biochemical
Conditions: Sf9
test-readout: inhibition (%)
Reply numerically in %, unit not repeated.

Look over these answered cases.
CN(C)c1ccc2c(Oc3ccc(NC(=O)NCc4cccnc4)cc3)ncnc2c1 : 15
CN(C)c1ccc2c(Nc3ccc(NC(=O)Nc4ccccc4)cc3)ncnc2c1 : 27

Continue with the next compound.
Ask: Record lookup: for Aurora kinase B (Homo sapiens, UniProt Q96GD4), what inhibition belongs to COc1cc(Oc2ccnc3cc(OC)c(OC)cc23)ccc1NC(=O)NC(C)c1nccs1 (stereo not drawn) ?
Result: 47

====

Target: Macrophage colony-stimulating factor 1 receptor (Homo sapiens)
Test: Inhibition of human recombinant GST-CSF1R (residues L534 to C972) expressed in Sf9 insect cells using poly(Glu,Tyr) as substrate incubated for 20 mins by ATP Kinase Glo assay
compounds and their reported pIC50
pIC50 (log units): -log10 of the concentration in mol/L.

COc1ccc2c(NCCc3cnc(NC(=O)Nc4cccc(Cl)c4)s3)ncnc2c1 : 6.95

Ask: Entry under review: CN(C)c1ccc2c(Oc3ccc(NC(=O)Nc4ccc(Cl)cc4)cc3)ncnc2c1 . Reported pIC50?
Result: 6.79

Ask: Entry under review: CN(C)c1ccc2c(Oc3ccc(NC(=O)Nc4cccc(C(F)(F)F)c4)cc3)ncnc2c1 . Reported pIC50?
Result: 7.19

====

Target: Aurora kinase A (Homo sapiens) (UniProt O14965)
Sequence (whole entry): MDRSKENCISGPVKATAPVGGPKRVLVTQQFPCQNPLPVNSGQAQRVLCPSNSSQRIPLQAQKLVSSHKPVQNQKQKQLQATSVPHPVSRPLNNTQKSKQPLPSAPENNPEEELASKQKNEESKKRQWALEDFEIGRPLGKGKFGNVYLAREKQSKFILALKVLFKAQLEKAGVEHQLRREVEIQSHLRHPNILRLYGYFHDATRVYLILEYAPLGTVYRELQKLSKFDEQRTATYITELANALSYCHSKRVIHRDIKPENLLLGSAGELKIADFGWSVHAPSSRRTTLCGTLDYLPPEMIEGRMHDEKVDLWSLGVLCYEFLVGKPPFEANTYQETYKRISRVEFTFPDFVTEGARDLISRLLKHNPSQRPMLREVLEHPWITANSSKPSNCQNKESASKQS
Experiment: Inhibition of recombinant GST-AURKA (residues Ser123 to Ser401) (unknown origin) expressed in Sf9 insect cells using tetra(-LRRASLG) peptide as substrate at 1 uM incubated for 90 mins by ATP Kinase Glo assay
test-readout: inhibition

Look over these answered cases.
COc1ccc(CNC(=O)Nc2ccc(Oc3ncnc4cc(N(C)C)ccc34)cc2)cc1 : 6%
CN(C)c1ccc2c(Oc3ccc(NC(=O)NCc4ccc(C#N)cc4)cc3)ncnc2c1 : 5%
CN(C)c1ccc2c(Oc3ccc(NC(=O)Nc4ccccc4Cl)cc3)ncnc2c1 : 43%

Continue with the next compound.
Ask: Entry under review: CN(C)c1ccc2ncnc(Oc3ccc(NC(=O)Nc4ccccc4)cc3)c2c1 . Reported inhibition?
Result: 29%
